Test: Clinical pharmacokinetics of siponimod (clearance)
Type: in vivo, human
Conditions: human, in vivo, iv; SimCYP V16 input; Novartis internal studies; read-out: In vivo iv clearance, CLiv (converted)
endpoint.name: clearance (mL/min)
Numbers only, in mL/min.

Incoming: Give its clearance value. Item: CCc1cc(/C(C)=N/OCc2ccc(C3CCCCC3)c(C(F)(F)F)c2)ccc1CN1CC(C(=O)O)C1 [siponimod, Siponimod]
Outgoing: 52

====

System: CYP2C9
Experiment: CYP2C9 intrinsic clearance calculated from PopPK genotype specific clearance (SimCYP V16)
Design: species or system human
Settings: human, plasma, CYP2C9*1/*3; total CLp - total CLp*0.207; read-out: CL driven by CYP2C9 (converted)
endpoint.name: clearance
Report as: number unit

Incoming: Give its clearance value. Item: CCc1cc(/C(C)=N/OCc2ccc(C3CCCCC3)c(C(F)(F)F)c2)ccc1CN1CC(C(=O)O)C1 [siponimod, Siponimod]
Outgoing: 23 mL/min
